# TARGET_UNDER_TEST: Cholinesterase (Homo sapiens, UniProt P06276)
# Sequence (P06276 whole entry): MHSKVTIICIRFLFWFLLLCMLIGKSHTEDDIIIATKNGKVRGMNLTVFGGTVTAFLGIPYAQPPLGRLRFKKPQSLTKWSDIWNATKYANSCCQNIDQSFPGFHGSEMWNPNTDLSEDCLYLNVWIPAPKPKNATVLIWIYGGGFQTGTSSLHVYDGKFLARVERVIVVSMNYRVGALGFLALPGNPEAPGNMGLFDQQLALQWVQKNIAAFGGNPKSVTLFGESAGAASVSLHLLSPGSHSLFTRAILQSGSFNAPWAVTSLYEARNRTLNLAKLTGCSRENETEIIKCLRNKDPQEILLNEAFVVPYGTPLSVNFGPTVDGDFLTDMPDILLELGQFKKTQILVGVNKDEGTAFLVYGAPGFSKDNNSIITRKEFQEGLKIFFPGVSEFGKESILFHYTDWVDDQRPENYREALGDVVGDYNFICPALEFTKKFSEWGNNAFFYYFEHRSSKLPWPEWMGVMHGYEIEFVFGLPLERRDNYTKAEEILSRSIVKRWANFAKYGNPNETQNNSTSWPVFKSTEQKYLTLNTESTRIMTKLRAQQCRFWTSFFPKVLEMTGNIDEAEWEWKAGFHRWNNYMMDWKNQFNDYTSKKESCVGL
pIC50: −log10 of the molar value.
Output t for pIC50 not less than 5; output f otherwise.

| COMPOUND | CLASSIFICATION |
| --- | --- |
| COc1cc2c(cc1OCCCCCC1CCSS1)C(=O)C(CC1CCN(Cc3ccccc3)CC1)C2 (stereo unspecified) | t |
| COc1cc2c(cc1O)C(=O)C(CC1CCN(Cc3ccccc3)CC1)C2 (stereo unspecified) | f |
| COc1cc2c(cc1OC(=O)CCCCC1CCSS1)C(=O)C(CC1CCN(Cc3ccccc3)CC1)C2 (stereo unspecified) | t |

Q. hey, is pIC50 for this one >= 5? COc1cc2c(cc1OCCCCCC1CCSS1)CC(CC1CCN(Cc3ccccc3)CC1)C2=O (stereo unspecified)
A. t

Q. hey, is pIC50 for this one >= 5? COc1cc2c(cc1O)CC(CC1CCN(Cc3ccccc3)CC1)C2=O (stereo unspecified)
A. f

Q. hey, is pIC50 for this one >= 5? O=C1c2cc(O)c(O)cc2CC1CC1CCN(Cc2ccccc2)CC1 (stereo unspecified)
A. f
